test system: methylphenidate; experiment: Methylphenidate antagonism, mice i.p.; type: in vivo; details: Mus musculus, ip; Table 1; mice, i.p., 2 h before methylphenidate 60 mg/kg s.c.; read-out: MePh Antag. ED50 (ip)
Where a name gives a salt, the structure may show the parent alone.

# molecule, studySystem, ED50 (µmol/kg)
records = [
    ("COc1ccc2c(c1)C(C1CCN(CCO)CC1)=CC2c1ccc(F)cc1 (stereo not shown) [Lu 20-033, hydrobromide]", "methylphenidate", 18.3),
    ("Cc1ccc2c(c1)C(C1CCN(CCN3CCOC3=O)CC1)=CC2c1ccc(F)cc1 (stereo not shown) [Lu 21-002]", "methylphenidate", 1.7),
    ("O=C1NCCN1CCN1CCC(C2=CC(c3ccc(F)cc3)c3ccccc32)CC1 (stereo not shown) [Lu 20-078]", "methylphenidate", 16.5),
    ("CC(C)c1ccc2c(c1)C(C1CCN(CCO)CC1)=CC2c1ccc(F)cc1 (stereo not shown) [Lu 20-109, hydrochloride]", "methylphenidate", 1.1),
]

* * *

Catalogue of molecules with associated ED50
assay: Catalepsy wire mesh, rat, max.; type: in vivo, rats; details: Rattus norvegicus, po, 6 h, read-out: Catalep. ED50 (po)
Structures can show the parent of a compound that is named as a salt.

# molecule, valueRelationSign, ED50 (µmol/kg)
data = [
    ("CSc1ccc2c(c1)C(N1CCN(C)CC1)Cc1ccccc1S2 (centres unmarked) [Methiothepin, reference compound]", "=", 2.3),
    ("OCCN1CCN(CCCN2c3ccccc3Sc3ccc(C(F)(F)F)cc32)CC1 [Fluphenazine, reference compound]", "=", 0.55),
    ("O=C1NCCN1CCN1CCC(C2C=C(c3ccc(F)cc3)c3ccc(F)cc32)CC1 (centres unmarked) [Lu 20-053]", ">", 94),
    ("OCCN1CCN(CC/C=C2/c3ccccc3Sc3ccc(C(F)(F)F)cc32)CC1 [Cis(Z)-flupentixol, reference compound]", "=", 2.1),
    ("Cc1ccc2c(c1)C(C1CCN(CCO)CC1)=CC2c1ccc(F)cc1 (centres unmarked) [Lu 20-008, hydrochloride]", "=", 2.3),
    ("Cc1ccc2c(c1)C(C1=CCN(CCO)CC1)=CC2c1ccc(F)cc1 (centres unmarked) [Lu 19-153, hydrobromide]", "=", 1.4),
    ("OCCN1CCC(C2=CC(c3ccc(F)cc3)c3ccc(F)cc32)CC1 (centres unmarked) [Lu 19-158, hydrochloride]", "=", 26),
    ("CN1CCC(C2=CC(c3ccc(F)cc3)c3ccc(C(F)(F)F)cc32)CC1 (centres unmarked) [Lu 20-071, hydrobromide]", "=", 2),
    ("O=C(CCCN1CCC(O)(c2ccc(Cl)cc2)CC1)c1ccc(F)cc1 [Haloperidol, reference compound]", "=", 1),
    ("CN(C)CCCN1c2ccccc2Sc2ccc(Cl)cc21 [Chlorpromazine, reference compound]", "=", 70),
    ("OCCN1CC=C(C2=CC(c3ccc(F)cc3)c3ccc(C(F)(F)F)cc32)CC1 (centres unmarked) [Lu 20-004, hydrobromide]", "=", 1.3),
]

* * *

system: 5-HT, rat fundus strip; test: 5-HT antagonism, rat fundus strip; conditions: 10 min; Table 1; rat fundus strip in vitro, 10 min pre-exposure; read-out: 5HT rat-fundus-strip IC50
Where a name gives a salt, the structure may show the parent alone.
// thresholds for IC50 classes: one: < 100 nM; two: ≥ 100 nM and < 500 nM; three: ≥ 500 nM

# molecule, studySystem, groupLabel
records = [
    ("Cc1ccc2c(c1)C(C1CCN(CCO)CC1)C=C2c1ccc(F)cc1 (centres unmarked) [Lu 20-039, hydrobromide]", "5-HT, rat fundus strip", "three"),
    ("CN1CCC(C2C=C(c3ccc(F)cc3)c3ccc(F)cc32)CC1 (centres unmarked) [Lu 19-004]", "5-HT, rat fundus strip", "three"),
    ("CN1CCC(C2=CC(c3ccc(F)cc3)c3ccc(F)cc32)CC1 (centres unmarked) [Lu 20-028, hydrobromide]", "5-HT, rat fundus strip", "two"),
    ("Cc1ccc2c(c1)C(C1CCN(C)CC1)=CC2c1ccc(F)cc1 (centres unmarked) [Lu 20-048, hydrobromide]", "5-HT, rat fundus strip", "one"),
    ("CC(C)c1ccc2c(c1)C(C1=CCN(C)CC1)=CC2c1ccc(F)cc1 (centres unmarked) [Lu 20-099, hydrobromide]", "5-HT, rat fundus strip", "three"),
    ("Cc1ccc2c(c1)C(C1=CCN(CCO)CC1)C=C2c1ccc(F)cc1 (centres unmarked) [Lu 20-038, hydrobromide]", "5-HT, rat fundus strip", "one"),
    ("OCCN1CC=C(C2=CC(c3ccc(F)cc3)c3ccc(F)cc32)CC1 (centres unmarked) [Lu 19-157, hydrobromide]", "5-HT, rat fundus strip", "two"),
    ("CN1CCC(=C2C=C(c3ccc(F)cc3)c3ccc(F)cc32)CC1 [Lu 19-151, hydrochloride]", "5-HT, rat fundus strip", "three"),
    ("Cc1ccc2c(c1)C(=C1CCN(CCO)CC1)C=C2c1ccc(F)cc1 [Lu 20-044, hydrobromide]", "5-HT, rat fundus strip", "two"),
    ("CN1CC=C(C2=CC(c3ccc(F)cc3)c3ccc(F)cc32)CC1 (centres unmarked) [Lu 20-025, hydrobromide]", "5-HT, rat fundus strip", "two"),
    ("Cc1ccc2c(c1)C(C1=CCN(C)CC1)=CC2c1ccc(F)cc1 (centres unmarked) [Lu 20-041, hydrobromide]", "5-HT, rat fundus strip", "one"),
    ("COc1ccc2c(c1)C(C1CCN(CCO)CC1)=CC2c1ccc(F)cc1 (centres unmarked) [Lu 20-033, hydrobromide]", "5-HT, rat fundus strip", "two"),
    ("Cc1ccc2c(c1)C(C1CCN(CCN3CCNC3=O)CC1)=CC2c1ccc(F)cc1 (centres unmarked) [Lu 20-064]", "5-HT, rat fundus strip", "one"),
    ("O=C1NCCN1CCN1CCC(C2C=C(c3ccc(F)cc3)c3ccccc32)CC1 (centres unmarked) [Lu 20-082]", "5-HT, rat fundus strip", "three"),
    ("Cc1ccc2c(c1)C(C1=CCN(C)CC1)C=C2c1ccc(F)cc1 (centres unmarked) [Lu 20-040, hydrobromide]", "5-HT, rat fundus strip", "one"),
    ("O=C1NCCN1CCN1CCC(C2=CC(c3ccc(F)cc3)c3ccccc32)CC1 (centres unmarked) [Lu 20-078]", "5-HT, rat fundus strip", "two"),
]
